All values here come from PubChem BioAssay (NCI).

System: HCC-2998 colon
protocolSummary: NCI tumour cell line growth inhibition, 48 h
propertyMeasured: GI50

Recorded GI50, per entry:
{"molecule": "O=C(Oc1ccccc1)c1cc(O)c(O)c(O)c1", "propertyMeasured": "GI50", "reportedMeasurement": "13.5 µM"}
{"molecule": "COc1ccc(NC2=C(Sc3nc(C)cc(C)n3)C(=O)N(Cc3ccccc3)C2=O)cc1Cl", "propertyMeasured": "GI50", "reportedMeasurement": "> 160 µM"}
{"molecule": "O=C1N=C2c3c(sc4c3CCCC4)N=CN2C1N=Nc1ccc(Cl)cc1 (stereo unspecified)", "propertyMeasured": "GI50", "reportedMeasurement": "24.4 µM"}
{"molecule": "C#Cc1cccc(NC(=O)Nc2ccc(NC(=O)CCl)cc2)c1", "propertyMeasured": "GI50", "reportedMeasurement": "52.5 µM"}
{"molecule": "FC(F)(F)c1ccc2c(c1)N(CCCN1CCN(C3CC3)CC1)c1ccccc1S2", "propertyMeasured": "GI50", "reportedMeasurement": "13.6 µM"}

Batch: GI50 for all items listed.
1. N#Cc1nc(-c2cccc(Br)c2)cc(-c2ccc(Nc3nc(N4CCCCC4)nc(N4CCCCC4)n3)cc2)c1N
2. CC[C@@]1(O)C(=O)NCc2c1cc1n(c2=O)Cc2cc3cc4c(cc3nc2-1)OCO4
3. COc1ccc(C2CC(=O)Nc3c2c(C)nn3-c2nc3ccccc3[nH]2)cc1 (stereo unspecified)
4. Cc1cccc2c3c(sc12)C(c1ccc(Cl)cc1)C(C#N)=C(/N=C/c1ccc(Cl)cc1)O3 (stereo unspecified)
5. CCOC(=O)c1cc2c(cc1Cl)SC(N(c1ccc(F)cc1)S(=O)(=O)c1ccc(OC)cc1)=NS2(=O)=O
6. CN(C)c1cccc2[nH]c(-c3[nH]ncc3Nc3ccnc(N)n3)nc12
7. CNC(=O)c1cc(Oc2ccc3nc(NC(=O)Nc4ccc(Cl)c(Cl)c4)sc3c2)ccn1
8. COc1ccc(/C=C/C(=O)c2ccc(Nc3ncnc4ccccc34)cc2)cc1OC

["2.31 µM", "0.984 µM", "5.67 µM", "1.04 µM", "18.2 µM", "0.0276 µM", "5.04 µM", "3.22 µM"]
